Biological target: P-selectin (Mus musculus, UniProt Q01102)
Sequence (Q01102 whole entry): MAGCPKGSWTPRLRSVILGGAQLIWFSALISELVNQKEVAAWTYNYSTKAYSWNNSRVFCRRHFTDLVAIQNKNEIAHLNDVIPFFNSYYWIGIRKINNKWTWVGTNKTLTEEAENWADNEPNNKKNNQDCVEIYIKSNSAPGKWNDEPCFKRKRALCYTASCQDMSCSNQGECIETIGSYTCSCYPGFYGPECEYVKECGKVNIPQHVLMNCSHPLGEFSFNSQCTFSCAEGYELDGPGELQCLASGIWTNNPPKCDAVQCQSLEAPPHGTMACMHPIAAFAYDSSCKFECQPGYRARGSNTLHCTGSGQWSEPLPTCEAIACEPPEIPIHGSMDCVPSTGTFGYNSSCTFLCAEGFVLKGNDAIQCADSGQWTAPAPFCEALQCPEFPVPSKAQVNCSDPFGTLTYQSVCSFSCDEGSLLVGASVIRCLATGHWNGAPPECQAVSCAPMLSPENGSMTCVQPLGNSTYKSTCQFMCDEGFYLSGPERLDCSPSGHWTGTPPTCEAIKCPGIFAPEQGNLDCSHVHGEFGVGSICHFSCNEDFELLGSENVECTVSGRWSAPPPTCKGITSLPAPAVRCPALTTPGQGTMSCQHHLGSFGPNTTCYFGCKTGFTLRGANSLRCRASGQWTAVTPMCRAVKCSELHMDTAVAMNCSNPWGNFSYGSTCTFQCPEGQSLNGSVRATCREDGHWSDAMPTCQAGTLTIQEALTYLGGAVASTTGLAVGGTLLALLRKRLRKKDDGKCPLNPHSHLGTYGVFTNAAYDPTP
Assay: Blocking activity using seletin-IgG chimeras in a Selectin P competitive binding assay.
Readout name: IC50 (µM)

Chemical structure	Measurement target	Unit label	IC50
CCCCCCCCCCCCCCC(CCCCCCCCCCCCCC)C(=O)N[C@@H](CO[C@@H]1O[C@@H](C)[C@@H](O)[C@H](O)[C@@H]1O)C(=O)N[C@H](CCC(=O)O)C(=O)NC	P-selectin (Mus musculus, UniProt Q01102)	µM	0.7
CCCCCCCCCCCCCCC(CCCCCCCCCCCCCC)CO[C@@H]1O[C@H](CO)[C@@H](O[C@@H]2O[C@H](CO)[C@H](O)[C@H](OS(=O)(=O)O)[C@H]2O)[C@H](O[C@@H]2O[C@@H](C)[C@@H](O)[C@@H](O)[C@@H]2O)[C@H]1O	P-selectin (Mus musculus, UniProt Q01102)	µM	100

[1] CCCCCCCCCCCCCCC(CCCCCCCCCCCCCC)C(=O)N[C@H](CO[C@@H]1O[C@@H](C)[C@@H](O)[C@H](O)[C@@H]1O)C(=O)N[C@@H](CCC(=O)O)C(=O)NC
[2] CCCCCCCCCCCCCCC(CCCCCCCCCCCCCC)C(=O)N[C@@H](CO[C@@H]1O[C@@H](C)[C@@H](O)[C@H](O)[C@@H]1O)C(=O)N[C@@H](CCC(=O)O)C(=O)NC
Problem: In terms of reported IC50, does 1 or 2 have the smaller number? # answer = label of selected item
Result: 1
